// TGI lookup, one value per entry
Test system: SK-OV-3 ovarian
Experiment: NCI tumour cell line growth inhibition, 48 h

Previously resolved entries follow.
>  <compound>
Cn1ccnc1C(=O)/C=C/c1ccc(C(=O)Nc2ccccc2O)cc1

>  <val>
14.5 µM

$$$$
>  <compound>
O=C(Nc1nncs1)NS(=O)(=O)n1cnc2ccccc21

>  <val>
> 100 µM

$$$$
>  <compound>
C[C@@H]1OC(=O)C[C@H]2CC(=O)N(CCC3CN(S(=O)(=O)C(F)(F)F)c4ccc(Cc5ccc6c(c5)C(CCN5C[C@H]7[C@@H](CC(=O)O[C@H]7C)CC5=O)CN6S(=O)(=O)C(F)(F)F)cc43)C[C@@H]21 (stereo partly drawn)

>  <val>
> 100 µM

$$$$
>  <compound>
CC(=O)[O-].[Ni].c1ccc(/C(=N\Nc2ccccn2)c2ccccn2)cc1

>  <val>
43.2 µM

$$$$
>  <compound>
CC(C)CCNC(=O)c1ccc(CNC(=O)/C=C/c2csc(-c3ccccc3)n2)cc1

>  <val>
> 100 µM

$$$$
>  <compound>
COC(=O)c1c(C)cc2c(c1O)C1(O)C(=O)c3cc4c(c(O)c3C(=O)C1(OC)C(O)C2)C(=O)C=C(NC1OC(C)C(OC)C(O)C1OC)C4=O (stereo not drawn)

>  <val>
1.58 µM

$$$$
>  <compound>
O=C(Nc1cccnc1)c1cccc([N+](=O)[O-])c1

>  <val>
> 100 µM

$$$$

// next item, TGI requested
Input: Item COP(=O)(OC)C(O)/C=C(\Cl)c1ccc(Cl)cc1 (stereo not drawn) has what recorded TGI?
Output: > 100 µM

---

Tested on: BT-549 breast
Assay: NCI tumour cell line growth inhibition, 48 h
readout type: TGI (µM)
Give the value, in units of µM, as a plain number.

Known TGI results, listed for orientation:
>  <structure notation>
COC(=O)c1cc2c3ccccc3n3c(=O)c4cc5cc(OC)c(N(S(=O)(=O)c6ccc(C)cc6)S(=O)(=O)c6ccc(C)cc6)cc5nc4c(n1)c23

>  <val>
27.8

$$$$
>  <structure notation>
CCN(CC)c1nc(N(C)C)c2ccc(OC)cc2n1

>  <val>
64.8

$$$$

Input: Lab note: need TGI for O=c1oc2cc(O)ccc2cc1-c1nc2ccccc2s1 on BT-549 breast, anyone have it?
Output: 51

Input: # returns recorded TGI (system: BT-549 breast) for Oc1ccc2ccccc2c1C(c1ccc(Cl)cc1)c1c(O)ccc2ccccc12
Output: 14.1

Input: Which measured TGI belongs to CCCCCCCCCCCCSC(=NC)NC , tested on BT-549 breast?
Output: 21

Input: Please tell me: TGI of CCCC(=O)Nc1cc([N+](=O)[O-])c([N+](=O)[O-])cc1OC , system BT-549 breast?
Output: 31

Input: Hello, I am looking for reported TGI with BT-549 breast for O=C(Nc1cccc([N+](=O)[O-])c1)c1ccc2ccccc2c1O . Could you help?
Output: 5.53

---

Tested on: SK-OV-3 ovarian
Assay: NCI tumour cell line growth inhibition, 48 h
Reported TGI is given for each of the following compounds.

Input: Which TGI value is on record for Cc1cc(NCCCCNc2ccnc3cc(Cl)ccc23)nc(Nc2ccc(C(=O)N3CCCC3)cc2)n1 ?
Output: 9.11 µM

Input: Please look up its TGI: N#CC(C#N)=Cc1ccc(C=C2SC3=C(SCCS3)S2)s1
Output: > 100 µM

Input: Entry under review: COc1ccc(-c2oc3cc(OC)c(OC)c(OC)c3c(=O)c2OC)cc1OC . Reported TGI?
Output: > 100 µM

Input: Param item = CCOP(=O)(OCC)/C(C#N)=C/c1ccc[nH]1 ; retrieve measured TGI.
Output: > 100 µM

Input: Fill in: TGI of CC(=O)O[C@H]1[C@H](OC(C)=O)[C@@H](CN=[N+]=[N-])OCO[C@@H]1CN=[N+]=[N-] is ___
Output: > 100 µM

---

System: BT-549 breast
Assay: NCI tumour cell line growth inhibition, 48 h
TGI of 20 µM or higher: yes. Under 20 µM: no.

Recorded results for 7 molecules are shown here.
>  <molecule>
CCN(CC)CCCNc1nc2ccccc2c2c(=O)c3cc(Cl)ccc3sc12

>  <class>
yes

$$$$
>  <molecule>
C=C(C)[C@@H]1CC[C@]2(C(=O)O)CC[C@]3(C)[C@H](CC[C@@H]4[C@@]5(C)C[C@@H](CC#Cc6ccc(Br)cc6)C(=O)C(C)(C)[C@@H]5CC[C@]43C)[C@@H]12

>  <class>
yes

$$$$
>  <molecule>
O=C(N/N=c1/ccoc2cccnc12)N1CCN(c2ncccn2)CC1

>  <class>
no

$$$$
>  <molecule>
O=C(Nc1nncs1)NS(=O)(=O)n1cnc2ccccc21

>  <class>
yes

$$$$
>  <molecule>
O=C1CSC(=S)N1Cc1cccnc1

>  <class>
yes

$$$$
>  <molecule>
CC(=O)Nc1ccc(S(=O)(=O)[N-]C2C(=O)c3ccccc3C(=O)C2[n+]2ccccc2)cc1 (centres undefined)

>  <class>
no

$$$$
>  <molecule>
CO/N=C(\COc1ccc2c(c1)oc(=O)c1cc(OC)ccc12)c1cccc(OC)c1

>  <class>
yes

$$$$

For the next question, use this molecule.
Input: Hello, I need to know if COc1ccc(N=Nc2c(C)c(C#N)c(=S)n(C3OC(COC(C)=O)C(OC(C)=O)C(OC(C)=O)C3OC(C)=O)c2-c2ccccc2)cc1 (centres undefined) has measured TGI not below 20 µM. Thanks!
Output: no

---

Tested on: K-562 leukemia
Test: NCI tumour cell line growth inhibition, 48 h; in the data active means GI50 below about 0.43 µM; inactive means the rest
One label from this list, please: 1 for active, 0 for inactive

>  <compound>
Oc1ccccc1Nc1nc2ccccc2c2occc12

>  <class>
0

$$$$
>  <compound>
CC(=O)c1c(O)ccc2c(C)c(C(=O)O)oc12

>  <class>
0

$$$$
>  <compound>
COC(=O)c1oc2c(O)c(OC)c(Br)cc2c1C

>  <class>
0

$$$$
>  <compound>
O=C(CC(O)c1ccncc1)c1ccccc1 (configuration not stated)

>  <class>
0

$$$$
>  <compound>
O=C1Nc2ccccc2/C1=C/c1cn(C(=O)c2c(Cl)cccc2Cl)c2ccccc12

>  <class>
0

$$$$

Input: Outcome? COc1ccc(Cn2cc3c(c2-c2ccc(O)cc2)CCc2cnoc2-3)cc1
Output: 1

Input: Outcome logged for O=C(Nc1cccc([N+](=O)[O-])c1)c1ccc2ccccc2c1O in this assay:
Output: 0

Input: Test call for this compound, please: CCSc1nc(N2CCCCC2)c2cn[nH]c2n1
Output: 0

---

Tested on: A498 renal
Assay: NCI tumour cell line growth inhibition, 48 h
# GI50 per entry

>  <structure notation>
CO/N=C(\COc1ccc2c(c1)oc(=O)c1cc(OC)ccc12)c1ccc(F)cc1

>  <GI50>
22300 nM

$$$$
>  <structure notation>
CCCCCCCCCCCCSC(=NC)NC

>  <GI50>
2630 nM

$$$$
>  <structure notation>
O=c1[nH]ccc2nc(-c3ccc(CN4CCC(c5nc(-c6ccccn6)n[nH]5)CC4)cc3)c(-c3ccccc3)cc12

>  <GI50>
< 34.5 nM

$$$$
>  <structure notation>
C=C(C)[C@@H]1CC[C@]2(C(=O)O)CC[C@]3(C)[C@H](CC[C@@H]4[C@@]5(C)C[C@@H](CC#Cc6ccc(Br)cc6)C(=O)C(C)(C)[C@@H]5CC[C@]43C)[C@@H]12

>  <GI50>
2420 nM

$$$$

Input: Item O=C(Nc1cccc([N+](=O)[O-])c1)c1ccc2ccccc2c1O with A498 renal - GI50?
Output: 3270 nM

---

Test system: SW-620 colon
Assay: NCI tumour cell line growth inhibition, 48 h
Recorded TGI by entry

>  <molecule>
Cc1cc(O)ccc1O

>  <target or system>
SW-620 colon

>  <TGI>
38.6 µM

$$$$

Input: I am curious: what TGI value has been reported for COC(=O)c1cc(-c2ccc(-c3ccc(O)cc3)cc2)cc(-c2ccc(-c3ccc(O)cc3)cc2)c1 ?
Output: 21.9 µM

Input: Any idea what its TGI is? The molecule is COc1ccc(/C=C(\C(=O)OCC(C)C)c2ccc(OC)c(OC)c2)cc1OC
Output: > 100 µM

Input: // lookup TGI for COc1ccc(N(C)c2nc(Cl)nc3ccn(C)c23)cc1
Output: > 100 µM

Input: Fill in: TGI of Cc1ccc(NC(=O)C(=O)C2NC(=S)NC2=O)c([N+](=O)[O-])c1 (configuration not stated) is ___
Output: > 100 µM

Input: What value of TGI has been reported for the following molecule? O=c1[nH]ccc2nc(-c3ccc(CN4CCC(c5nc(-c6ccccn6)n[nH]5)CC4)cc3)c(-c3ccccc3)cc12
Output: > 100 µM

Input: Given COc1ccc(NC(=O)COC(=O)c2cccc3c(=O)c4ccccc4[nH]c23)cc1 , state its recorded TGI.
Output: 60.1 µM

Input: For the molecule Cc1[nH]n(-c2ccc(S(=O)(=O)O)cc2)c(=O)c1N=Nc1ccccc1 , what TGI is on record?
Output: > 100 µM
